# test target: Ylr278c (UniProt Q05854)
# Sequence (Q05854 whole entry): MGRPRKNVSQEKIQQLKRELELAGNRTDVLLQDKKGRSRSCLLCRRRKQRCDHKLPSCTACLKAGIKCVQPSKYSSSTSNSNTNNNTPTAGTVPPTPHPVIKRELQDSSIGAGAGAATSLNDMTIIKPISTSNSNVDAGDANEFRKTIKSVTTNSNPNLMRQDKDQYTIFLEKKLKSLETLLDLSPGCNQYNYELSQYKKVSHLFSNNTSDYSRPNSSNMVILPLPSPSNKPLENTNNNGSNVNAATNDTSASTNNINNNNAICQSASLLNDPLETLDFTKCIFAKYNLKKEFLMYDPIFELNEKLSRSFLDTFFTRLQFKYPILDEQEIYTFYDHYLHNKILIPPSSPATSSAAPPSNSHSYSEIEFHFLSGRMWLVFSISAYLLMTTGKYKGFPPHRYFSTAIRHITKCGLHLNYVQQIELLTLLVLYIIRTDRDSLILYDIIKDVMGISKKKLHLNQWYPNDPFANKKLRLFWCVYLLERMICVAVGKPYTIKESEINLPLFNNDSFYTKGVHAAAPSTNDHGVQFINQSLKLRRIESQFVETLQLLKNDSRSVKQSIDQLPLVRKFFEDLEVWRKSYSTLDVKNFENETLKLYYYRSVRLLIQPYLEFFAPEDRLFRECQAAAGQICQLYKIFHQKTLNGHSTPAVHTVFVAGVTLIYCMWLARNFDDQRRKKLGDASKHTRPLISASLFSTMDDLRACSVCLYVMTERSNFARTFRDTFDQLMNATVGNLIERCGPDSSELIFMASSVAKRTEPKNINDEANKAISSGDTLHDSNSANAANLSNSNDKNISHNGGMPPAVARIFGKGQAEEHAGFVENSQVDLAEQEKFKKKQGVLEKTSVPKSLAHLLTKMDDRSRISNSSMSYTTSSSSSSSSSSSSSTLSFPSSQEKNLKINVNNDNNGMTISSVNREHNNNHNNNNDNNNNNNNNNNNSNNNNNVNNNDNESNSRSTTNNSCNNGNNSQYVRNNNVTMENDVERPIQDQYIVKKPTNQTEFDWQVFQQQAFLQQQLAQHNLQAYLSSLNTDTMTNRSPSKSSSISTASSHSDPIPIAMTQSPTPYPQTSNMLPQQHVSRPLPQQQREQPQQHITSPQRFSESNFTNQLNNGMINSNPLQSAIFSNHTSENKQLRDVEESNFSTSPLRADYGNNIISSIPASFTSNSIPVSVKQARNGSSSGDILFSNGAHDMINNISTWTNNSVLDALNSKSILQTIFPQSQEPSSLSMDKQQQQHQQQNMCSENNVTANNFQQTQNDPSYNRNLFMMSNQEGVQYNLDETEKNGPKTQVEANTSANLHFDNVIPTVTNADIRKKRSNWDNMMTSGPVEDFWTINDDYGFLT
# assay name: PBM E-score (8-mer binding enrichment) (E-score (-0.5 to 0.5)); higher = stronger / more preferred TF binding
# protocol conditions: protein concentration: 200 nM; construct: GST-DNA-binding domain
Whole data set: some 33,000 sequences, median “E-score (-0.5 to 0.5)” near -0.054, cut for the highest 2% near 0.39. The list comes from a sample in which the highest values are over-represented; it also holds close analogues and randomly drawn sequences.
Each entry below carries its recorded PBM E-score.
measured metric: PBM E-score

sequence_text=CCTAGTAA numeric_result=0.00285
sequence_text=ACGCCCCG numeric_result=0.229
sequence_text=AGGTTGGG numeric_result=-0.122
sequence_text=GAAATCGC numeric_result=0.214
sequence_text=CATCACAG numeric_result=-0.108
sequence_text=TCATCGCA numeric_result=-0.0812
sequence_text=GCTTGTTA numeric_result=0.0864
sequence_text=CAATGGTG numeric_result=-0.248
sequence_text=CGGCATTA numeric_result=0.405
sequence_text=AAGCCCGC numeric_result=0.266
sequence_text=TCATCGGA numeric_result=0.408
sequence_text=CCGCCCCG numeric_result=0.42

Value source: the supplement of paper PMC3334620
